Values were extracted from patent US20260250379A1.

# Measured Target: T1, LILRB4 (Beijing ACROBiosystems, article number LI4-H52H7, 6xHis label) (human, UniProt Q8NHJ6 22-259)
# T1 construct: Analyte (mobile phase) in the BIACORE 8K assay; also called Human LILRB4; not shown: 6xHis label
# Protocol Notes: SPR, BIACORE 8K; antibody captured on Protein A chip, LILRB4-6xHis as analyte
Measured Kd accompanies every entry in the list below.
Kindly answer with a numeric value in nM, unit omitted.

See these solved cases before continuing.
humanized antibody RB4-G1-019 (antibody, human IgG1, kappa, V domains shown) VH: QVQLVQSGAEVKKPGASVKVSCKASGYTFTSYWMHWVRQAPGQGLEWMGEINPSNGRTNYNEKFKSRVTLTVDKSTSTVYMELSSLRSEDTAVYYCARDRYDEGNAMDYWGQGTTVTVSS VL: DIQMTQSPSSLSASVGDRVTITCRASQDITNYLNWYQQKPGKAPKLLIYYTSRLHSGVPSRFSGSGSGTEYTLTISSLQPDDFATYYCQQGDTLPRTFGQGTRLEIKR | 2.77
humanized antibody RB4-G1-022 (antibody, human IgG1, kappa, V domains shown) VH: QVQLVQSGAEVKKPGASVKVSCKASGYTFTSYWMHWVRQAPGQGLEWIGEINPSNGRTNYNEKFKSRATLTVDKSTSTAYMELSSLRSEDTAVYYCARDRYDEGNAMDYWGQGTTVTVSS VL: DIQMTQSPSSLSASVGDRVTITCRASQDITNYLNWYQQKPGKAPKLLIYYTSRLHSGVPSRFSGSGSGTDYTFTISSLQPEDIATYYCQQGDTLPRTFGQGTRLEIKR | 2.33
humanized antibody RB4-G1-018 (antibody, human IgG1, kappa, V domains shown) VH: QVQLVQSGAEVKKPGASVKVSCKASGYTFTSYWMHWVRQAPGQGLEWIGEINPSNGRTNYNEKFKSRATLTVDKSTSTAYMELSSLRSEDTAVYYCARDRYDEGNAMDYWGQGTTVTVSS VL: DIQMTQSPSSLSASVGDRVTITCRASQDITNYLNWYQQKPGKAPKLLIYYTSRLHSGVPSRFSGSGSGTEYTLTISSLQPDDFATYYCQQGDTLPRTFGQGTRLEIKR | 2.81

Request the reported Kd associated with humanized antibody RB4-G1-020 (antibody, human IgG1, kappa, V domains shown) VH: QVQLVQSGAEVKKPGASVKVSCKASGYTFTSYWMHWVRQAPGQGLEWMGEINPSNGRTNYNEKFKSRVTMTRDTSTSTVYMELSSLRSEDTAVYYCARDRYDEGNAMDYWGQGTTVTVSS VL: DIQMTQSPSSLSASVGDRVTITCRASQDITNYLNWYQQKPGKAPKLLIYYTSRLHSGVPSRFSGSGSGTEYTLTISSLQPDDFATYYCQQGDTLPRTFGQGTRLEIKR
3.29
